Reference source: patent US20250115597A1

Molecular target: TYK2-JH2 domain (Homo sapiens)
Construct: IC50 on JH2 domain activity (nM)
Assay: Binding activity test for JH2 domain of TYK2 (Tb-antibody/tracer FRET)
parameterMeasured: IC50 (nM)

# annotated cases, reported IC50 shown
compound	IC50, nM
[2H]C([2H])([2H])NC(=O)c1cnc(NC(=O)C2CC2)cc1Nc1cn(C)c2ccn(CC)c(=O)c12	0.887
[2H]C([2H])([2H])NC(=O)c1cnc(Nc2ccn(C)n2)cc1Nc1ccn2ncc(C)c2c1OC	0.323
[2H]C([2H])([2H])NC(=O)c1cnc(NC(=O)C2CC2)cc1Nc1cn(C)c2ccn(CC(F)(F)F)c(=O)c12	0.92

P = [2H]C([2H])([2H])NC(=O)c1cnc(NC(C)=O)cc1Nc1ccc2cnn(CC)c2c1OC
Q = CCn1ncc2ccc(Nc3cc(NC(=O)C4CC4)ncc3C(=O)NC)c(OC)c21
[in] Pick one: P or Q . Which one has the lower reported IC50? Response format: the label of the selected entry.
[out] Q
(Q: 0.288 nM, P: 3.01 nM)

1 = [2H]C([2H])([2H])NC(=O)c1cnc(NC(=O)C2CC2)cc1Nc1cn(C)c2ncn(CC(F)F)c(=O)c12
2 = [2H]C([2H])([2H])NC(=O)c1cnc(Nc2ccncn2)cc1Nc1ccc2cnn(C([2H])([2H])[2H])c2c1OC
[in] Return label of the item with the larger IC50. Candidates: 1 , 2 . Response format: the label of the selected entry.
[out] 1

P = [2H]C([2H])([2H])NC(=O)c1cnc(NC(=O)C2CC2)cc1Nc1cn(C)c2ccn(C(C)C(F)(F)F)c(=O)c12 (single isomer, unassigned) [Example 190A]
Q = CCN1C(=O)Cc2ccc(Nc3cc(NC(=O)C4CC4)ncc3C(=O)NC)c(OC)c21
[in] Return label of the item with the larger IC50. Candidates: P , Q . Response format: the label of the selected entry.
[out] Q

A = [2H]C([2H])([2H])NC(=O)c1cnc(NC(=O)C2CC2)cc1Nc1ccc2cnn(CCN(C)C)c2c1OC
B = [2H]C([2H])([2H])NC(=O)c1cnc(NC(=O)C2CC2)cc1Nc1csc2ncn(CC)c(=O)c12
C = [2H]C([2H])([2H])NC(=O)c1cnc(NC(=O)C2CC2)cc1Nc1cn(CC2CC2)c2ncn(CC)c(=O)c12
[in] # sort list by recorded IC50, greatest to least Provide the ranking by listing each label in its place in the requested order.
[out] A, B, C
(A: 34.4 nM, B: 0.525 nM, C: 0.25 nM)

----------
Biological target: TYK2-JH2 domain (Homo sapiens, UniProt P29597)
Construct: IC50 on JH2 domain activity (nM)
Sequence (P29597 589-875 limits assumed): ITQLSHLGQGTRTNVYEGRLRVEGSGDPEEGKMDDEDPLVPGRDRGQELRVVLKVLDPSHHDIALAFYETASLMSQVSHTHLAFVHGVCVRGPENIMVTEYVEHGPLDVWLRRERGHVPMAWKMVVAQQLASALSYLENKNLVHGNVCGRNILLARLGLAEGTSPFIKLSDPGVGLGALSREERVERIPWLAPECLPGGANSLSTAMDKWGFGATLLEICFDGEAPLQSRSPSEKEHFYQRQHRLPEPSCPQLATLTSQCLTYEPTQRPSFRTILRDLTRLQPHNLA
Experiment: Binding activity test for JH2 domain of TYK2 (Tb-antibody/tracer FRET)
pIC50: −log10 of the molar value.
parameterMeasured: pIC50

molecule	numericReadout
[2H]C([2H])([2H])NC(=O)c1cnc(NC(=O)C2CC2)cc1Nc1ccc2cnn(CC(F)F)c2c1OC [Example 131]	9.48
[2H]C([2H])([2H])NC(=O)c1nnc(NC(=O)C2CC2)cc1Nc1ccc2cnn(CC)c2c1OC [Example 144]	8.89
[2H]C([2H])([2H])NC(=O)c1cnc(Nc2ccc(F)cn2)cc1Nc1ncc2cnn(C([2H])([2H])[2H])c2c1OC [Example 277]	8.96
[2H]C([2H])([2H])NC(=O)c1cnc(NC(=O)C2CC2)cc1Nc1csc2cnn(CC)c(=O)c12 [Example 231]	9.01
[2H]C([2H])([2H])NC(=O)c1cnc(Nc2ccc(N3CCOCC3)cn2)cc1Nc1ccc2cnn(CC)c2c1OC [Example 273]	9.78

P = [2H]C([2H])([2H])NC(=O)c1cnc(NC(=O)C2CC2)cc1Nc1ccn2ncc(COC)c2c1OC [Example 226]
Q = [2H]C([2H])([2H])NC(=O)c1cnc(NC(=O)C2CC2)cc1Nc1nn(C)c2ccn(CC(F)(F)F)c(=O)c12 [Example 53]
[in] Return label of the item with the larger pIC50. Candidates: P , Q . Response format: the label of the selected entry.
[out] Q
(Q: 9.53, P: 8.84)
